// EC50 lookup, one value per entry
# Tested system: ZFP36L2 (UniProt P47974)
# Sequence: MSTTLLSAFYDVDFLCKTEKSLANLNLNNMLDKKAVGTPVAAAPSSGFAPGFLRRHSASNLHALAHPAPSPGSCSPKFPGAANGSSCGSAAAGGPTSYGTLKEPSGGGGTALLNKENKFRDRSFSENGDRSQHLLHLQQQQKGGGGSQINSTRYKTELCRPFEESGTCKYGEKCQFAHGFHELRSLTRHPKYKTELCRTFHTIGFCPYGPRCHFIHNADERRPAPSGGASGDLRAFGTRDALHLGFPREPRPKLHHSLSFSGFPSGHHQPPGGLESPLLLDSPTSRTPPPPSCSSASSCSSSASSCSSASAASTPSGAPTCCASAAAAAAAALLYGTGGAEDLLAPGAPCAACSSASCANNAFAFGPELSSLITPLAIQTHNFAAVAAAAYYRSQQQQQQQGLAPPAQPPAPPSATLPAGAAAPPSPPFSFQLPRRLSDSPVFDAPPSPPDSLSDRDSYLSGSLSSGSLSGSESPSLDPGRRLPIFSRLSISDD
# Test name: EC50 of free RNA motif oligo competing protein binding to immobilised probe
Just the number in nM, nothing appended.

[in] Using the record for `UAUUUAU` , report its EC50.
[out] 61.8

New cases:
[in] Please report the recorded EC50 for `AAUAAA` .
[out] 1830
